assay: qHTS assay for small molecule disruptors of the mitochondrial membrane potential - 5 hr assay (AID 651755); settings: JC-1-type ratio dye; series mostly up to 92.2 µM; also: nearly all actives have a fitted effect of over 40% in size
Records with an inconclusive call do not appear. Active and inactive are the calls of the source. Calls follow the shape of the full dose curve.
Result category, one only: active, inactive

Consider the worked cases shown below.
CN1[C@H]2CC(OC(=O)[C@H](CO)c3ccccc3)C[C@H]1[C@H]1O[C@H]12 (some centres not stated) = inactive
CC(=O)Nc1ccc(C(=O)CCl)cc1 = inactive
Cc1cccc(O)c1C = inactive
Nc1ccc2cc3ccccc3cc2c1 = active
C=CC(=O)OCCOCCOC(=O)C=C = inactive

Would you mind telling me which call this test gave c1cc(OCC2CO2)cc(OCC2CO2)c1 (configuration not stated) ? inactive

Would you mind telling me which call this test gave C/C=C1\C(=O)C[C@H]2[C@@H]3CCC4=CC(=O)CC[C@]4(C)[C@H]3CC[C@]12C ? inactive
